Cited source for all entries: ChEMBL document CHEMBL4316607

Molecular target: Glutamate receptor ionotropic, NMDA 2B (Mus musculus, UniProt P35438+Q01097)
Sequence (Q01097 whole entry, one chain of several): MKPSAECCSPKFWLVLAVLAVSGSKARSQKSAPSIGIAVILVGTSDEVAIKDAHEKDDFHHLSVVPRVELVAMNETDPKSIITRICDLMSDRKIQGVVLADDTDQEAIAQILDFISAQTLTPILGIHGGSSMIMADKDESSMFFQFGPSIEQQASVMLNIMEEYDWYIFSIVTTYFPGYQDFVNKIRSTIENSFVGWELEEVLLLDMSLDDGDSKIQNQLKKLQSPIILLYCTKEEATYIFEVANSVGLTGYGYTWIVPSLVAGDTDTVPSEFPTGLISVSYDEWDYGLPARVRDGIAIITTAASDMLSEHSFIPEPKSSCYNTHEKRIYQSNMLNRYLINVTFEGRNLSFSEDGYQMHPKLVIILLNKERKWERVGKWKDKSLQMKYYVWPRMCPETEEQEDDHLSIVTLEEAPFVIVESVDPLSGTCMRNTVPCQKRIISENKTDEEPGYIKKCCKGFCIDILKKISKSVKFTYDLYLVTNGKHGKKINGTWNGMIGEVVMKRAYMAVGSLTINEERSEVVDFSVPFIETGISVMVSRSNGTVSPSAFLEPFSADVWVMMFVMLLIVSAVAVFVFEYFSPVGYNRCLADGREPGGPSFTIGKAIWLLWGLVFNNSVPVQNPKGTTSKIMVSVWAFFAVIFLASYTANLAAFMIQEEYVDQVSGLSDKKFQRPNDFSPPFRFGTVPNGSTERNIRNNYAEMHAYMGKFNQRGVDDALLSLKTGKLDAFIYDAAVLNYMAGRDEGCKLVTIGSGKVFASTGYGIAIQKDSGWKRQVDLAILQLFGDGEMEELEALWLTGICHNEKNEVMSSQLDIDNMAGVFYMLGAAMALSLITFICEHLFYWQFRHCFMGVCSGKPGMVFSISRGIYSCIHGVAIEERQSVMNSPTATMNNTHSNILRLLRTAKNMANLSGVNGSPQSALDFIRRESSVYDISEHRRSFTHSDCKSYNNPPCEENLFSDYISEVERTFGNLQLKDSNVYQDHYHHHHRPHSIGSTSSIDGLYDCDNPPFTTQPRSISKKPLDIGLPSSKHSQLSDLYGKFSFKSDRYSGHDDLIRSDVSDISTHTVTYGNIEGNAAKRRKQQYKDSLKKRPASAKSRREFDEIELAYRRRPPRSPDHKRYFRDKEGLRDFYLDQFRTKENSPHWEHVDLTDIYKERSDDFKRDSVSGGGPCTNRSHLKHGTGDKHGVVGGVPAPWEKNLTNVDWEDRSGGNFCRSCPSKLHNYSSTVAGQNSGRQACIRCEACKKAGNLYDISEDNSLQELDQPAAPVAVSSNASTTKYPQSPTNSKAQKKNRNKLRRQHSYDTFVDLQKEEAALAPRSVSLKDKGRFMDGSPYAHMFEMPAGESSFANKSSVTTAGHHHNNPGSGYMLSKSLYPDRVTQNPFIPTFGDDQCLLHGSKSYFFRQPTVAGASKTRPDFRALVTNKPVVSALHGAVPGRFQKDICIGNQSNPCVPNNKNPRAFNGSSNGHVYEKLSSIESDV
Test: Antagonist activity at mouse NR2B receptor expressed in HEK293 cells co-expressing NR1 subunit assessed as reduction in glutamic acid/glycine-induced calcium ion influx by fluorescence based assay
pIC50: −log10 of the molar value.
Short version: pIC50 at least 8 is t, less is f.

Example entries and their recorded answers appear below.
| smilesEntry | target | classLabel |
| --- | --- | --- |
| O=C(c1cc(-c2cc[nH]n2)on1)N1CCC(Cc2ccc(Cl)cc2)CC1 | Glutamate receptor ionotropic, NMDA 2B (Mus musculus, UniProt P35438+Q01097) | f |
| C[C@@H]1CN(c2ccc(Cl)c(F)c2)CCN1C(=O)C(=O)Nc1ccc2[nH]c(=O)oc2c1 | Glutamate receptor ionotropic, NMDA 2B (Mus musculus, UniProt P35438+Q01097) | t |
| C[C@@H]1CN(C(=O)C(=O)Nc2ccc3[nH]c(=O)oc3c2)CCN1c1ccc(Cl)c(F)c1 | Glutamate receptor ionotropic, NMDA 2B (Mus musculus, UniProt P35438+Q01097) | t |

Please examine the following record next.
QUERY: Exam item: decide whether the reported pIC50 for "C[C@H]1CN(C(=O)C(=O)Nc2ccc3[nH]c(=O)oc3c2)CCN1c1ccc(Cl)cc1" is at least 8.
RESULT: f
